- Tested system: T1, puroindoline A (Triticum aestivum, UniProt P33432 29-148)
- T1 construct: puroindoline A (PINA) of Triticum aestivum cv; Recital, purified from grain; about 13 kDa, five disulfide bonds, tryptophan-rich domain; The Pina allele of cv; The preparation probably holds several C-terminally processed forms; also called PINA
- T1 sequence (looked up): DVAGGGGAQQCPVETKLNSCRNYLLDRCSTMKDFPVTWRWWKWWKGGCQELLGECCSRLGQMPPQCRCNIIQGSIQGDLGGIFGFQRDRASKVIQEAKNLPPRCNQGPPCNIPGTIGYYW
- Method notes: SPR; α-gliadin, γ-gliadin or (PQQPY)8 covalently bound to a CM5 chip (EDC/NHS, 10 mM acetate pH 4.7); PINA flowed over at 10 μL/min, 25°C, 10 mM Hepes pH 7.4, 150 mM NaCl, 3.4 mM EDTA, 0.005% P20; global kinetic fit, 1:1 Langmuir model
- Experimental conditions: both partners purified
Reported endpoint: pKd
Give bare numbers, as −log10 of the molar value.

Incoming: Fill blank: measured pKd of the binder PQQPYPQQPYPQQPYPQQPYPQQPYPQQPYPQQPYPQQPY (written out from '(PQQPY)8'; measured mass 4924.5 Da, theoretical 4924.3 Da; The fusion is printed as thioredoxin-DP-(PQQPY)8 and was cut in formic acid; The printed theoretical mass of 4924.3 Da fits 40 residues (eight repeats, monoisotopic) without a further proline; also called (Pro-Gln-Gln-Pro-Tyr)8; spr8; source: BLR strain, pETb32 vector, thioredoxin fusion; not shown: thioredoxin, …) [recombinant polypeptide (PQQPY)8] is ____.
Outgoing: 6.54
